Tested on: lepB(P84L) P. aeruginosa PAO1
assay procedure: microbe, parasite or virus in culture
Assay type: cell-based, Pseudomonas aeruginosa
experimental conditions: Table 3, P3 position derivatives; unit not given

{"compound": "CCCCCCCCCCCCCCCC(=O)N(C)[C@H](CO)C(=O)N[C@H](C)C(=O)NCC(=O)N(C)[C@@H]1C(=O)N[C@@H](CCCCC)C(=O)N[C@H](C(=O)O)Cc2ccc(O)c(c2)-c2cc1ccc2O [Compound 30]", "result qualifier": ">", "minimal inhibitory concentration (MIC)": 128}
{"compound": "CCCCCCCCCCCCCCCC(=O)N(C)[C@H](CO)C(=O)N[C@H](C)C(=O)NCC(=O)N(C)[C@@H]1C(=O)N[C@@H](CCC)C(=O)N[C@H](C(=O)O)Cc2ccc(O)c(c2)-c2cc1ccc2O [Compound 28]", "result qualifier": "=", "minimal inhibitory concentration (MIC)": 8}
{"compound": "CCCCCCCCCCCCCCCC(=O)N(C)[C@H](CO)C(=O)N[C@H](C)C(=O)NCC(=O)N(C)[C@@H]1C(=O)N[C@@H](C)C(=O)N[C@H](C(=O)O)Cc2ccc(O)c(c2)-c2cc1ccc2O [Arylomycin C16, arylomycin C16]", "result qualifier": "=", "minimal inhibitory concentration (MIC)": 4}

---

Tested on: lepB(P29S) S. aureus 8325
assay procedure: microbe, parasite or virus in culture
Assay type: cell-based, Staphylococcus aureus
reported endpoint: minimal inhibitory concentration (MIC)

{"structure": "CCCCCCCCCCCCCCCC(=O)N(C)[C@H](CO)C(=O)N[C@H](C)C(=O)NCC(=O)N(C)[C@@H]1C(=O)N[C@@H](CC)C(=O)N[C@H](C(=O)O)Cc2ccc(O)c(c2)-c2cc1ccc2O", "experimental value": 8}
{"structure": "CCCCCCCCCCCCCCCC(=O)N(C)[C@H](CO)C(=O)N[C@H](C)C(=O)NCC(=O)N(C)[C@@H]1C(=O)N[C@@H](CCCC)C(=O)N[C@H](C(=O)O)Cc2ccc(O)c(c2)-c2cc1ccc2O", "experimental value": 16}
{"structure": "CCCCCCCCCCCCCCCC(=O)N(C)[C@H](CO)C(=O)N[C@H](C)C(=O)NCC(=O)N(C)[C@@H]1C(=O)NCC(=O)N[C@H](C(=O)O)Cc2ccc(O)c(c2)-c2cc1ccc2O", "experimental value": ">64"}
{"structure": "CCCCCCCCCCCCCCCC(=O)N(C)[C@H](CO)C(=O)N[C@H](C)C(=O)NCC(=O)N(C)[C@@H]1C(=O)N[C@@H](CC(C)C)C(=O)N[C@H](C(=O)O)Cc2ccc(O)c(c2)-c2cc1ccc2O", "experimental value": 32}

---

Test system: wild type S. epidermidis RP62A
assay procedure: microbe, parasite or virus in culture
Assay type: cell-based, Staphylococcus epidermidis
experimental conditions: Table 3, P3 position derivatives; unit not given

{"molecule": "CCCCCCCCCCCCCCCC(=O)N(C)[C@H](CO)C(=O)N[C@H](C)C(=O)NCC(=O)N(C)[C@@H]1C(=O)N[C@@H](CCCO)C(=O)N[C@H](C(=O)O)Cc2ccc(O)c(c2)-c2cc1ccc2O", "result qualifier": ">", "minimal inhibitory concentration (MIC)": 64}
{"molecule": "CCCCCCCCCCCCCCCC(=O)N(C)[C@H](CO)C(=O)N[C@H](C)C(=O)NCC(=O)N(C)[C@@H]1C(=O)N[C@@H](CCC)C(=O)N[C@H](C(=O)O)Cc2ccc(O)c(c2)-c2cc1ccc2O", "result qualifier": "=", "minimal inhibitory concentration (MIC)": 1}
{"molecule": "CCCCCCCCCCCCCCCC(=O)N(C)[C@H](CO)C(=O)N[C@H](C)C(=O)NCC(=O)N(C)[C@@H]1C(=O)N[C@@H](CCCCC)C(=O)N[C@H](C(=O)O)Cc2ccc(O)c(c2)-c2cc1ccc2O", "result qualifier": "=", "minimal inhibitory concentration (MIC)": 4}
{"molecule": "CCCCCCCCCCCCCCCC(=O)N(C)[C@H](CO)C(=O)N[C@H](C)C(=O)NCC(=O)N(C)[C@@H]1C(=O)N[C@@H](C)C(=O)N[C@H](C(=O)O)Cc2ccc(O)c(c2)-c2cc1ccc2O", "result qualifier": "=", "minimal inhibitory concentration (MIC)": 0.25}
{"molecule": "CCCCCCCCCCCCCCCC(=O)N(C)[C@H](CO)C(=O)N[C@H](C)C(=O)NCC(=O)N(C)[C@@H]1C(=O)N[C@@H](C(C)C)C(=O)N[C@H](C(=O)O)Cc2ccc(O)c(c2)-c2cc1ccc2O", "result qualifier": "=", "minimal inhibitory concentration (MIC)": 4}
{"molecule": "CCCCCCCCCCCCCCCC(=O)N(C)[C@H](CO)C(=O)N[C@H](C)C(=O)NCC(=O)N(C)[C@@H]1C(=O)N[C@@H](CCCCO)C(=O)N[C@H](C(=O)O)Cc2ccc(O)c(c2)-c2cc1ccc2O", "result qualifier": ">", "minimal inhibitory concentration (MIC)": 64}
{"molecule": "CCCCCCCCCCCCCCCC(=O)N(C)[C@H](CO)C(=O)N[C@H](C)C(=O)NCC(=O)N(C)[C@@H]1C(=O)NC(CC(F)(F)F)C(=O)N[C@H](C(=O)O)Cc2ccc(O)c(c2)-c2cc1ccc2O (stereo partly shown)", "result qualifier": "=", "minimal inhibitory concentration (MIC)": 8}

Each recorded value in this set is attributed to patent US20160297851A1.
